Entry source: patent US8143296B2

Rule: melting point below 200 °C gives MET, anything at or above gives NOT MET.

Molecule | Class label
Br.NC(N)=Nc1nc(-c2ccc(Cl)cc2Cl)cs1 | MET
Br.NC(N)=Nc1nc(-c2cccc(Cl)c2)cs1 | NOT MET
Br.NC(N)=Nc1nc(-c2ccc(Br)cc2)cs1 | NOT MET
Br.NC(N)=Nc1nc(-c2cccc(C(F)(F)F)c2)cs1 | NOT MET
Cc1nc(N=C(N)N)sc1Cc1ccc(F)cc1.Cl | NOT MET
Cl.NC(N)=Nc1nc(-c2ccc(-c3ccccc3)cc2)cs1 | NOT MET
Br.NC(N)=Nc1nc(-c2cccc(Br)c2)cs1 | MET
Cl.NC(N)=Nc1nc(-c2ccc(Cl)cc2)cs1 | NOT MET
Br.NC(N)=Nc1nc(-c2ccc(Cl)c(Cl)c2)cs1 | NOT MET
Br.CCc1ccc(-c2csc(N=C(N)N)n2)cc1 | NOT MET
Br.NC(N)=Nc1nc(-c2ccccc2F)cs1 | NOT MET
Cl.NC(N)=Nc1nc(-c2ccc(F)cc2)cs1 | NOT MET

====

Tgt: α1G T-type calcium channel (Homo sapiens)
Construct: host or cells: HEK293
Sequence (O43497 whole entry): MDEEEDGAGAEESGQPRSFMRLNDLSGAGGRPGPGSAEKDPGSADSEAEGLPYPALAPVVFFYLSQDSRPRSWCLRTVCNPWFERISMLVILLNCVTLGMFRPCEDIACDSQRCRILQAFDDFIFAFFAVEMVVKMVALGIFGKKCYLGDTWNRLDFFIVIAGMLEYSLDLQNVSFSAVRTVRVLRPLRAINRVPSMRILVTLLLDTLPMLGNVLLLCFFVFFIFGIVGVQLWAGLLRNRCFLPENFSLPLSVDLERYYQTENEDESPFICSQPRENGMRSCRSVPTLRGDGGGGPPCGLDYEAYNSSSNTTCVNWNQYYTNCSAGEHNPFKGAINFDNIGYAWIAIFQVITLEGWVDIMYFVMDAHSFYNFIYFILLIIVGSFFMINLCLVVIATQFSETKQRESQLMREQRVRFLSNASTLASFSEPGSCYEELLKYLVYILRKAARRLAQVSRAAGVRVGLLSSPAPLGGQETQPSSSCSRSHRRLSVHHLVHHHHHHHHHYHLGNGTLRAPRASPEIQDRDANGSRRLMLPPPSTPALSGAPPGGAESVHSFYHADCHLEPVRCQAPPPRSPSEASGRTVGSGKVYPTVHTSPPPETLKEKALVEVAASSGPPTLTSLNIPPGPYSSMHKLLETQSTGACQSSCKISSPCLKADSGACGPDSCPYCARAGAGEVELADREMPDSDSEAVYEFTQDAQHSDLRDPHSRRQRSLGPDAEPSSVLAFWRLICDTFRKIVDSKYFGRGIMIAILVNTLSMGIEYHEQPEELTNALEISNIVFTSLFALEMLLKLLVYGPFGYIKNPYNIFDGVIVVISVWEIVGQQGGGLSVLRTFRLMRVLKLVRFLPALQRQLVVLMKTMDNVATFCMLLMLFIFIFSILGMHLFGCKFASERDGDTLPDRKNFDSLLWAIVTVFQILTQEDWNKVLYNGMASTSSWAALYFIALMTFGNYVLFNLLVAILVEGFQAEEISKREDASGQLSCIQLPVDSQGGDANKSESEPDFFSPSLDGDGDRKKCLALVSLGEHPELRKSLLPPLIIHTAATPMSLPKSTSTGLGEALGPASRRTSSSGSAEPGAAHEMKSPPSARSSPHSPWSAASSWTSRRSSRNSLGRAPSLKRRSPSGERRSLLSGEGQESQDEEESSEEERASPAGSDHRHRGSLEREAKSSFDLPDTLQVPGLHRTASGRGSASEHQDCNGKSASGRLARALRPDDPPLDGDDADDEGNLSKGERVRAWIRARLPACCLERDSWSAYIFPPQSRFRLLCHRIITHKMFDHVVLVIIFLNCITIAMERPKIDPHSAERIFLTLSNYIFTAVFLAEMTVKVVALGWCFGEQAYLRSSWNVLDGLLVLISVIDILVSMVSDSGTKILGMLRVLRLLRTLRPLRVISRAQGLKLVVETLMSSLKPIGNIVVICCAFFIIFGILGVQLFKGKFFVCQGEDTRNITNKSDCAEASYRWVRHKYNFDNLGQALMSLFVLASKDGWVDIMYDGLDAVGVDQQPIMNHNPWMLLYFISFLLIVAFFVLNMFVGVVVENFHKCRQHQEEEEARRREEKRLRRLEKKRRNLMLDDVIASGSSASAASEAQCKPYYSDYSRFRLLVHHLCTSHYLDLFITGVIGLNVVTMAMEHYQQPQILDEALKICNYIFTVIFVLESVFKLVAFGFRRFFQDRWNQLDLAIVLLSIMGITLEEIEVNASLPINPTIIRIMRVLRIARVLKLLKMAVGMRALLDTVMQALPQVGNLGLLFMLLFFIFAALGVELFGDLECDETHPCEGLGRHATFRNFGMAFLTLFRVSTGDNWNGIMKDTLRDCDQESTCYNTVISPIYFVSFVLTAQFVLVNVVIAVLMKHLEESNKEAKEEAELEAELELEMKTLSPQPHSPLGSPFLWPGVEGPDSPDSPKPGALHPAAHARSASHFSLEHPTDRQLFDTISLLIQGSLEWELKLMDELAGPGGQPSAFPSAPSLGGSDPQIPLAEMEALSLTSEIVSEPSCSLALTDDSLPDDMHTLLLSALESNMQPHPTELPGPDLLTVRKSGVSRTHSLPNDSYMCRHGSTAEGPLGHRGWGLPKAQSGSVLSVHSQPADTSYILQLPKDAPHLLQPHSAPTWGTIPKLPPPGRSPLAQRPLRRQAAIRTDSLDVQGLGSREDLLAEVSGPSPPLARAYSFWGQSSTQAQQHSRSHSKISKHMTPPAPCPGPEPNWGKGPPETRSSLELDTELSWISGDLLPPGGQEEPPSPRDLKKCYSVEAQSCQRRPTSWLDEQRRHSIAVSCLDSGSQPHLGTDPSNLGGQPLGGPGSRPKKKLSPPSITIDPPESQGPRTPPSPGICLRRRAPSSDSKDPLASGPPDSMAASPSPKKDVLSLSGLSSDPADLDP
Method notes: Assay for % inhibiting activity against T-type calcium channel using FDSS6000
Type: cell-based
Assay setup: HEK293, 10 μM; HEK293 cells expressing α1G; Table 3 (Chemical Formula 2 series)
Counter-ions that a name gives are not always drawn.

Compound | Unit annotation | inhibition at 10 µM
Cc1ccc(CNC(=O)Cc2csc(N=C(N)N)n2)cc1.Cl [KHG23187, hydrochloride] | % | 21.4
Cl.NC(N)=Nc1nc(CC(=O)Nc2ccc(Cl)cc2)cs1 [KHG23184, hydrochloride] | % | 24.9
NC(N)=Nc1nc(CC(=O)NCCc2ccc(F)cc2)cs1 [KHG23190, hydrochloride] | % | 21
Cl.NC(N)=Nc1nc(CC(=O)Nc2cc(Cl)ccc2F)cs1 [KHG23172, hydrochloride] | % | 27.6
CCOc1ccc(NC(=O)Cc2csc(N=C(N)N)n2)cc1.Cl [KHG23192, hydrochloride] | % | 16.8
NC(N)=Nc1nc(CC(=O)Nc2c(Cl)cc(C(F)(F)F)cc2Cl)cs1 [KHG23391, hydrochloride] | % | 0.8
COc1ccc(NC(=O)Cc2csc(N=C(N)N)n2)c(C)c1 [KHG23393, hydrochloride] | % | 3.8
Cc1ccc(NC(=O)Cc2csc(N=C(N)N)n2)c(Cl)c1.Cl [KHG23174, hydrochloride] | % | 18.8
N#CCc1ccc(NC(=O)Cc2csc(N=C(N)N)n2)cc1 [KHG23387, hydrochloride] | % | 3.2
Cl.N#Cc1ccc(NC(=O)Cc2csc(N=C(N)N)n2)cc1 [KHG23176, hydrochloride] | % | 20.5
NC(N)=Nc1nc(CC(=O)Nc2cc([N+](=O)[O-])ccc2F)cs1 [KHG23168, hydrochloride] | % | 21.6
CCCCOc1ccc(NC(=O)Cc2csc(N=C(N)N)n2)cc1 [KHG23384, hydrochloride] | % | 6.1
Cc1ccc(NC(=O)Cc2csc(N=C(N)N)n2)c(Br)c1.Cl [KHG23191, hydrochloride] | % | 18
Cc1ccc(CCNC(=O)Cc2csc(N=C(N)N)n2)cc1.Cl [KHG23188, hydrochloride] | % | 19.3
Cl.NC(N)=Nc1nc(CC(=O)Nc2ccc(F)cc2)cs1 [KHG23171, hydrochloride] | % | 21.5
Cc1ccc(NC(=O)Cc2csc(N=C(N)N)n2)cc1.Cl [KHG23175, hydrochloride] | % | 23.8
Cl.NC(N)=Nc1nc(CC(=O)Nc2ccc(Cl)cc2F)cs1 [KHG23173, hydrochloride] | % | 28.1
CCOC(=O)c1cccc(NC(=O)Cc2csc(N=C(N)N)n2)c1 [KHG23382, hydrochloride] | % | 24
NC(N)=Nc1nc(CC(=O)Nc2ccc(F)c(F)c2F)cs1 [KHG23392, hydrochloride] | % | 22.7
NC(N)=Nc1nc(CC(=O)Nc2cc(C(F)(F)F)cc(C(F)(F)F)c2)cs1 [KHG23394, hydrochloride] | % | 41.5
Cl.NC(N)=Nc1nc(CC(=O)Nc2ccc(Br)cc2)cs1 [KHG23178, hydrochloride] | % | 34.5
CC(C)c1ccc(NC(=O)Cc2csc(N=C(N)N)n2)cc1 [KHG23379, hydrochloride] | % | 14.7
Cl.NC(N)=Nc1nc(CC(=O)Nc2ccc(F)cc2Cl)cs1 [KHG23169, hydrochloride] | % | 23.2
CCOC(=O)c1ccc(NC(=O)Cc2csc(N=C(N)N)n2)cc1 [KHG23385, hydrochloride] | % | 5.9
Cl.NC(N)=Nc1nc(CC(=O)Nc2cc(Cl)cc(Cl)c2)cs1 [KHG23185, hydrochloride] | % | 12.3
CCCCCCc1ccc(NC(=O)Cc2csc(N=C(N)N)n2)cc1 [KHG23383, hydrochloride] | % | 5.7
NC(N)=Nc1nc(CC(=O)Nc2c(Cl)c(Cl)cc(Cl)c2Cl)cs1 [KHG23395, hydrochloride] | % | 2.7
Cl.NC(N)=Nc1nc(CC(=O)Nc2ccccc2)cs1 [KHG23177, hydrochloride] | % | 23.3
NC(N)=Nc1nc(CC(=O)Nc2ccc([N+](=O)[O-])cc2)cs1 [KHG23380, hydrochloride] | % | 11.4
CCc1ccc(NC(=O)Cc2csc(N=C(N)N)n2)cc1.Cl [KHG23186, hydrochloride] | % | 29.8
Cl.NC(N)=Nc1nc(CC(=O)NCc2ccc(F)c(F)c2)cs1 [KHG23189, hydrochloride] | % | 19.3
NC(N)=Nc1nc(CC(=O)Nc2ccc(Oc3ccccc3)cc2)cs1 [KHG23389, hydrochloride] | % | 25.4
NC(N)=Nc1nc(CC(=O)Nc2c(Cl)cc(OC(F)(F)F)cc2Cl)cs1 [KHG23398, hydrochloride] | % | 0.2
CCCCCCCCCCc1ccc(NC(=O)Cc2csc(N=C(N)N)n2)cc1 [KHG23381, hydrochloride] | % | 6.2
